The following binders are shown together with reported Kd values.
- tested target: T1, huMICB*005 alpha 3-his (human)
- T1 construct: whole construct entry: GS, alpha 3 domain, GNS, His8; also called MICB005.His; MICB*005 alpha3 construct
- T1 chain: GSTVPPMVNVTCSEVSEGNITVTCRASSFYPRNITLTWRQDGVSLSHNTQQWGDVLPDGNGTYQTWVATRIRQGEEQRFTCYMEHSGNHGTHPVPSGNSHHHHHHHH
- assay overview: SPR, Biacore 8K, antibody on Protein A chip
Enter your answer as a number in nM; do not include the unit.

Example cases with answers are listed next.
| binder | unit tag | Kd |
| --- | --- | --- |
| 1D5v22 (antibody, IgG1, V domains shown, humanized variant of 1D5) VH: EIQLVQSGAEVKKPGASVKVSCKASGYAFTSQNIYWVRQAPGQGLEWIGYIEPYNVVPMYNPKFKGRATLTRDKSTSTAYLELSSLRSEDTAVYYCARSGSSNFDYWGQGTLVTVSS VL: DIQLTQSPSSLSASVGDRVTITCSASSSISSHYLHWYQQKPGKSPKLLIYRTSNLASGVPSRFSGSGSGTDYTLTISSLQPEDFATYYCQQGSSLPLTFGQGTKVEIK | nM | 13.2 |
| 1D5v4 (antibody, IgG1, V domains shown, humanized variant of 1D5) VH: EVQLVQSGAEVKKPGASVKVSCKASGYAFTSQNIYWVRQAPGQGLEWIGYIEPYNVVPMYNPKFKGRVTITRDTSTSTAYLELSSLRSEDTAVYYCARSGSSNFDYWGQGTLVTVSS VL: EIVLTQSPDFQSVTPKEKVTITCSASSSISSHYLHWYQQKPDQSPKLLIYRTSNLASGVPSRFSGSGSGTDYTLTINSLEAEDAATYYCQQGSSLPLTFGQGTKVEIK | nM | 16.2 |
| 13A9v2 (antibody, IgG1, V domains shown, humanized variant of 13A9) VH: EVQLVQSGAEVKKPGASVKVSCKASGYAFTNYLIEWVRQAPGQGLEWIGAINPGSGATNYNEKFKDRATLTADKSTNTAYLELSSLRSEDTAVYFCARFLGNYFDNWGQGTLVTVSS VL: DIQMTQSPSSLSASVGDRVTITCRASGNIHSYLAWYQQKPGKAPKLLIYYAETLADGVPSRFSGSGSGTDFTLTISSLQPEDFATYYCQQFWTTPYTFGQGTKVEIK | nM | 3.15 |
| 1D5v20 (antibody, IgG1, V domains shown, humanized variant of 1D5) VH: EIQLVQSGAEVKKPGASVKVSCKASGYAFTSQNIYWVRQAPGQGLEWIGYIEPYNVVPMYNPKFKGRVTLTVDKSTSTAYLELSSLRSEDTAVYYCARSGSSNFDYWGQGTLVTVSS VL: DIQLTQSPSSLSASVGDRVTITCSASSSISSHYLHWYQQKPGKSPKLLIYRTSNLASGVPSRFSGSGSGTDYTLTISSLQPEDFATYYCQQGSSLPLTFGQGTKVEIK | nM | 1.57 |

Switching to the query record.
Reported Kd, binder 15F11v4 (antibody, IgG1, V domains shown, humanized variant of 15F11) VH: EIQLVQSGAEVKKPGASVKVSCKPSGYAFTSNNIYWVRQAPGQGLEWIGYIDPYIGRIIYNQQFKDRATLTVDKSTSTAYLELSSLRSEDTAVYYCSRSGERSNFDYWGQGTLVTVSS VL: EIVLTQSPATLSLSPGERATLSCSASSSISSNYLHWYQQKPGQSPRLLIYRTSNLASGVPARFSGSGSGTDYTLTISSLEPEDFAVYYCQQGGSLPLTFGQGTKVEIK : ____ 5.72
